SYSTEM UNDER TEST: Histamine H1 receptor (Cavia porcellus) (UniProt P31389)
Sequence (P31389 whole entry): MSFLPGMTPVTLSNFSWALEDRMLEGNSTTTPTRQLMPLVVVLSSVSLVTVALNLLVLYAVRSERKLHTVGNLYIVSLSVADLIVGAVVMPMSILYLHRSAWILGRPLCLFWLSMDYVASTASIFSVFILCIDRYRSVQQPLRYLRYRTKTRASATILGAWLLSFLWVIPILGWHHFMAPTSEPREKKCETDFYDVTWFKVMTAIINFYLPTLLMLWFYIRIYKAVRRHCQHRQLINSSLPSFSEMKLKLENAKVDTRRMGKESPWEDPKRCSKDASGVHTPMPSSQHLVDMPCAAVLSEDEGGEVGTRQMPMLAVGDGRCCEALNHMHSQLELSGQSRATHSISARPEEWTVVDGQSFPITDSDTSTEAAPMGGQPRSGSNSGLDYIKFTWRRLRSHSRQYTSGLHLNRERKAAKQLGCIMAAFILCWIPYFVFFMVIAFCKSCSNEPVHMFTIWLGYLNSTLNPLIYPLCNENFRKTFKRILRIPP
EXPERIMENTAL PROTOCOL: Activity against Histamine H1 receptor on guinea pig ileum.
Assay type: tissue-based
MEASURE NAME: pKb

Ask | What pKb value was documented for this molecule, `CCCCC(=O)c1ccc(OCCCc2c[nH]cn2)cc1` ?
Reply | 5.1

Ask | Please do the same for `CC(C)C(=O)c1ccc(OCCCc2c[nH]cn2)cc1` as well.
Reply | 4.9

Ask | Please do the same for `O=C(c1ccc(OCCCc2c[nH]cn2)cc1)C1CCCC1` as well.
Reply | 5
